Form field: GLP1R EC50 human (one value per entry).
# measuredTarget: human GLP-1 receptor (GLP1R) (human, UniProt P43220 24-463)
# protocol: cell-based or functional assay
Numbered stars: 1 amine (or outer) side, 2 acyl side, 3 side chain; on linkers, the order of the positions; unused ones are H or OH. Square brackets hold non-standard residues; d marks the D form. Side chains are listed from the residue outwards. Ends that are not written are not given here. * marks the point of attachment. Phe(4-CH2NH2) = NCc1ccc(C[C@H](N)C(=O)O)cc1; C18 diacid = O=C(O)CCCCCCCCCCCCCCCCC(=O)*; γGlu = O=C(O)[C@H](CCC(=O)[*:2])N[*:1]; Met(O2) = CS(=O)(=O)CC[C@H](N)C(=O)O; AEEA = NCCOCCOCC(=O)O; Aib = CC(C)(N)C(=O)O; C16 = lipid (C16)
State just the number; it will be interpreted in nM.

>>> print(df.to_string())
                                     binder  readoutnumber
0  H[Aib]QGTFTSD[Phe(4-CH2NH2)]([AEEA-AEEA-γGlu-C20‑OH])SKYLD[Aib]RAAQDFVQWLLATK-{γGlu-NH2} [TP581]           1.69
1  H[Aib]QGTFTSDK([γGlu-γGlu-C16])SKYLDARAAK([AEEA-AEEA-γGlu-C18 diacid])DFVQWL[Met(O2)]DT-NH2 [TP601]            8.5
2  H[Aib]QGTFTSDYSKYLDARAAQ[Phe(4-CH2NH2)]([AEEA-AEEA-γGlu-C20‑OH])FVQWLLDT-NH2 [TP585]          0.566
3  H[Aib]QGTFTSDYSKYLD[Aib]RAAQDFVK([AEEA-AEEA-γGlu-C20‑OH])WL[Met(O2)]DT-NH2 [TP576]           1.88

Now consider a different binder.
response.value for H[Aib]QGTFTSDYSKYLD[Aib]RAAK([AEEA-AEEA-γGlu-C20‑OH])DFVQWL[Met(O2)]DT-NH2 [TP564] (field: GLP1R EC50 human) = 1.22

These measurements were taken from patent US20200270325A1.
